Origin of the recorded values: PubChem BioAssay (NCI)

- Test system: T-47D breast
- Measurement Description: NCI tumour cell line growth inhibition, 48 h
Metric Name: GI50

## Input # value lookup — system T-47D breast, readout GI50, item `CN1CCN(CCCOc2ccc3nc(Nc4cc(Cl)cc(Cl)c4)ccc3c2)CC1`
## Output 1.99 µM

## Input Enter reported GI50 observed with T-47D breast for `COc1ccc2[nH]c(-c3ccccc3)c(/C=C(\C#N)S(=O)(=O)c3ccccc3)c2c1`
## Output 5.18 µM

## Input Which GI50 is reported with T-47D breast for this entry: `CN1CCc2c(c3ccccc3c3ccccc23)C1` ?
## Output 5.68 µM

## Input Please tell me: GI50 of `O=C1c2ccccc2-c2nnc(-c3ccc(Br)cc3)cc21` , system T-47D breast?
## Output 48.8 µM

## Input I'm curious: which GI50 was measured for `COc1cc(NCCCCCN=C(N)N)c2ncccc2c1` tested on T-47D breast?
## Output 1.07 µM

## Input API: value(readout=GI50, system=T-47D breast) for record `ClCc1ccc(-c2ccc(Cn3cnc4nc(Cl)nc(Cl)c43)cc2)cc1`
## Output 7.03 µM

## Input Requested read-out GI50, target or system T-47D breast, entry `O=C(Nc1ccc(CN2CCOCC2)cc1)c1ccc(-c2cc(Cl)ccc2Cl)o1`
## Output 5.34 µM

## Input Form field: GI50 recorded for `O=C1C=CC(=O)N1C1CCCCCCCCCCC1` with T-47D breast (enter value)
## Output 3.08 µM

## Input Give the reported GI50 for `CCOc1nc(-c2ccccc2)cc2c(O)c(C(=O)N/N=C/c3ccc(O)cc3O)[nH]c(=O)c12` (system: T-47D breast).
## Output 1.64 µM

## Input Please tell me: GI50 of `O=C(Nc1cccc(-n2cc(-c3ccncc3)c(-c3ccc(Cl)c(O)c3)n2)c1)Nc1ccc(Cl)c(C(F)(F)F)c1` , system T-47D breast?
## Output 0.911 µM

---

For each of the compounds below, state its TGI.
- Tested on: SW-620 colon
- Measurement Description: NCI tumour cell line growth inhibition, 48 h

## Input I am curious: what TGI value has been reported for `CCCCc1ccc(Nc2cc(=O)n(C)c(=O)[nH]2)cc1` ?
## Output > 100 µM

## Input Bench note: what TGI did CC1=NN(c2nc(N)nc(C(C#N)C(=O)c3cc4c(cc3Cl)Sc3nccn3S4(=O)=O)n2)C(C)(C)C1 (centres undefined) show?
## Output > 100 µM

## Input Looking for the measured TGI of `O=C(O)c1cccc2cccc(-c3c4ccc(=O)cc-4oc4cc(O)ccc34)c12` , can you help?
## Output > 100 µM

## Input Entry `c1ccc2c(c1)nc1n2sc2nc3ccccc3n21` has what TGI?
## Output > 100 µM

## Input Returns the measured TGI for the input compound. Input: CCCC1C(CC)C(NC)C(C#N)(C#N)C1(C#N)C#N (centres undefined)
## Output > 100 µM

## Input Look up TGI: `O=S(=O)(Nc1ccccc1)c1ccc(-c2c3nc(c(-c4ccc(S(=O)(=O)Nc5ccccc5)cc4)c4ccc([nH]4)c(-c4ccc(S(=O)(=O)Nc5ccccc5)cc4)c4nc(c(-c5ccc(S(=O)(=O)Nc6ccccc6)cc5)c5ccc2[nH]5)C=C4)C=C3)cc1`
## Output > 31.6 µM

## Input Give the measured TGI of `C=C1OC(=O)[C@]2([C@@H](/C=C/C)C=CC(=O)[C@H]2O)[C@@H]1O` .
## Output > 100 µM

## Input Endpoint output: TGI of CC1CC2OC(=O)CC2C[C@@H]1O[Si](C)(C)C(C)(C)C (some centres undefined) . Value?
## Output > 100 µM

## Input Which measured TGI value corresponds to `Fc1cnc(NC2CC2)nc1-c1cnc2ccc(N3CCOCC3)cn12` ?
## Output 12.4 µM

---

- System: CAKI-1 renal
- Measurement Description: NCI tumour cell line growth inhibition, 48 h
Assign class by TGI: not lower than 30 µM means t; lower than 30 µM means f.

## Input Exam item: decide whether the reported TGI for C=CC1(CC)/C(=N\O)C(CC)(CC)C(=O)N1O (configuration not stated) is at least 30 µM.
## Output t

## Input Check this compound for TGI at or above 30 µM: O=C1C2C=CC(n3[nH]c(=O)n(Cc4ccccc4)c3=O)CC2C(=O)N1c1cccc(Cl)c1 (configuration not stated)
## Output t

## Input Could you verify whether the entry CC(=O)C1=C(c2ccccc2)N(C2OC(CO)C(O)C(O)C2O)C(S)=C(C#N)C1c1ccc(Cl)cc1 (configuration not stated) shows TGI of no less than 30 µM?
## Output t

## Input Is it the case that CSc1ncc2c(n1)-c1ccccc1OC2N1CCCCC1 (configuration not stated) has TGI reaching or exceeding 30 µM?
## Output t

## Input Threshold query (TGI >= 30 µM) on `FC(F)(F)c1nnn[n-]1.[Au+].c1ccc([PH+](c2ccccc2)c2ccccc2)cc1`
## Output f

## Input Could you verify whether the entry `S=C(S)N1CCN(c2cccc(Cl)c2)CC1` shows TGI of no less than 30 µM?
## Output t

## Input Dear colleague, could you confirm whether `CC(C)=CCc1c(O)c(CC=C(C)C)c2oc(-c3ccc(O)cc3O)c(CC=C(C)C)c(=O)c2c1O` has TGI at or above 30 µM?
## Output f

## Input Item CCCC1C(CC)C(NC)C(C#N)(C#N)C1(C#N)C#N (configuration not stated) with TGI of 30 µM or above?
## Output f

## Input Kindly determine if TGI recorded for `Cc1cc(NS(=O)(=O)c2ccc(NC(=O)c3cccn4c(=O)c5ccccc5nc34)cc2)no1` is above or exactly 30 µM.
## Output t

## Input In plain terms: is recorded TGI at least 30 µM for C=C1C(O)C23CCC4C(C(=O)O)(C(=O)O)CC(OC5OC(CO)C(O)C(OC(=O)CCc6ccccc6)C5NC(=O)CC(C)C)CC4(C)C2CCC1(O)C3 (configuration not stated) ?
## Output t

## Input Please tell me: is the compound `CCOC(=O)Nn1c(C)nnc1CC#N` at or over 30 µM in terms of TGI?
## Output t

## Input TGI >= 30 µM for `COc1ccc(-c2cc(=O)c3c(OC)cccc3o2)c(OC)c1OC` ?
## Output t

## Input Has Cc1ccc([N+](=O)[O-])cc1S(=O)(=O)Nc1ccc(C2=NN(C(=O)c3ccccc3)C(c3ccccc3)C2)cc1 (configuration not stated) a recorded TGI greater than or equal to 30 µM?
## Output t

## Input I'd appreciate it if you could say whether `CCOC(=O)N1C/C(=C/c2ccc(F)cc2)C(=O)/C(=C/c2ccc(F)cc2)C1` has TGI at least equal to 30 µM.
## Output f

## Input Given the entry `Nc1nc(-c2ccccc2)c(Cl)c(-c2cc(Cl)ccc2O)n1` , answer whether its TGI meets or surpasses 30 µM.
## Output t

## Input Reported TGI at or above 30 µM? Nc1nc2c(c3ncccc13)C(c1cccc(Br)c1)Cc1ncccc1-2 (configuration not stated)
## Output t

## Input Hi, just wondering whether `Oc1ccc2ccccc2c1CN(Cc1c(O)ccc2ccccc12)C1CCCCC1` shows TGI of 30 µM or higher.
## Output t

## Input Answer whether TGI of `O=C(Nc1ccc(CN2CCOCC2)cc1)c1ccc(-c2cc(Cl)ccc2Cl)o1` is greater than or equal to 30 µM.
## Output t

## Input Please check the record `Cc1ccc([N+](=O)[O-])cc1S(=O)(=O)Nc1ccc(C(=O)/C=C/c2cccs2)cc1` and state if its TGI is at or above 30 µM.
## Output t

## Input TGI >= 30 µM for `O=c1c2cc([N+](=O)[O-])ccc2[nH]n1Cc1ccccn1` ?
## Output t

## Input Assess whether reported TGI for `O=C(O)c1cc(C(=O)O)nc(C(=O)O)c1` sits at 30 µM or higher.
## Output t

## Input Test whether the compound CC1(C)OC2C(CO)OC(n3cnc(N)nc3=O)C2O1 (configuration not stated) records TGI of 30 µM or higher.
## Output t

## Input Identify whether the reported TGI of the following compound is 30 µM or greater: `COc1ccc(C(=O)c2cc(OC)c3c(c2)OCO3)cc1O`
## Output t

## Input Can N#CC(/C(CCCC(=O)Nc1cccc([N+](=O)[O-])c1)=N/NC(=O)c1cc2ccccc2cc1O)c1ccccc1 (configuration not stated) be said to have TGI at or above 30 µM?
## Output t

## Input Does `COc1cc(C(=O)NC(CCN)(c2ccccc2)c2ccccc2)cc(OC)c1OC` have a reported TGI of at least 30 µM?
## Output t

## Input Textbook exercise: given the entry `Cc1ncc([N+](=O)[O-])n1CCNC(=O)CCCn1ccnc1[N+](=O)[O-]` , state whether its TGI is greater than or equal to 30 µM.
## Output t

## Input Exam item: decide whether the reported TGI for Cc1cc2ncn(C3CCCO3)c2cc1C (configuration not stated) is at least 30 µM.
## Output t

## Input Could you tell me if the measured TGI of `CCN(CC)C(=S)N/N=C(\C)c1cccc(C)n1` reaches 30 µM or more?
## Output f

## Input Quick check: does `Nc1ccc2c(c1)C(=O)N(OS(=O)(=O)c1ccccc1)C2=O` have TGI greater than or equal to 30 µM?
## Output t

## Input Exam item: decide whether the reported TGI for `Cc1ccc(C(=O)Nc2ccccc2)cc1N=NN(C)C` is at least 30 µM.
## Output t

## Input Decide: is the reported value of TGI for CC1CC(C)CC(NC2=NCCO2)C1 (configuration not stated) equal to or greater than 30 µM?
## Output t

## Input Identify whether the reported TGI of the following compound is 30 µM or greater: `C#C[C@]1(O)CC[C@H]2[C@@H]3CCC4=CC(=NCCOC(=O)c5cccc6c(=O)c7ccccc7[nH]c56)CC[C@@H]4[C@H]3CC[C@@]21C`
## Output t

## Input Textbook exercise: given the entry `CCOC(=O)c1sc2nc(SC)nc3c2c1NCN3C1CC1` , state whether its TGI is greater than or equal to 30 µM.
## Output t

## Input hey, is TGI for this one >= 30 µM? `COc1cc(NCCCCCN=C(N)N)c2ncccc2c1`
## Output t

## Input Is TGI for `O=C(Nc1cccc(-n2cc(-c3ccncc3)c(-c3ccc(Cl)c(O)c3)n2)c1)Nc1ccc(Cl)c(C(F)(F)F)c1` at or above 30 µM?
## Output f

## Input Does `COc1cc(S(=O)(=O)Nc2nc(-c3ccc(N=Cc4cccs4)cc3)cs2)ccc1Cl` have a reported TGI of at least 30 µM?
## Output t

## Input In plain terms: is recorded TGI at least 30 µM for `CC(=O)[CH-]C(C)=O.CC(=O)[CH-]C(C)=O.CC(=O)[CH-]C(C)=O.[In+3]` ?
## Output t

## Input Please tell me: is the compound CC1CC(c2ccc([N+](=O)[O-])cc2)=Nc2ccccc2S1 (configuration not stated) at or over 30 µM in terms of TGI?
## Output t

## Input Check the entry `COc1cc(C=O)cc(/C=N/c2ccccn2)c1O` : does TGI equal or exceed 30 µM?
## Output f

## Input Given `Cc1ccc2nc(-c3ccc(N)c(Br)c3)sc2c1` , state whether its TGI is at least 30 µM.
## Output t

## Input Entry `Cc1cc(N(CCC#N)CCC#N)ccc1/C=C\C(=O)Nc1ccccc1` : is its TGI no less than 30 µM?
## Output t
